test system: UniProt P09958
Sequence (P09958 whole entry): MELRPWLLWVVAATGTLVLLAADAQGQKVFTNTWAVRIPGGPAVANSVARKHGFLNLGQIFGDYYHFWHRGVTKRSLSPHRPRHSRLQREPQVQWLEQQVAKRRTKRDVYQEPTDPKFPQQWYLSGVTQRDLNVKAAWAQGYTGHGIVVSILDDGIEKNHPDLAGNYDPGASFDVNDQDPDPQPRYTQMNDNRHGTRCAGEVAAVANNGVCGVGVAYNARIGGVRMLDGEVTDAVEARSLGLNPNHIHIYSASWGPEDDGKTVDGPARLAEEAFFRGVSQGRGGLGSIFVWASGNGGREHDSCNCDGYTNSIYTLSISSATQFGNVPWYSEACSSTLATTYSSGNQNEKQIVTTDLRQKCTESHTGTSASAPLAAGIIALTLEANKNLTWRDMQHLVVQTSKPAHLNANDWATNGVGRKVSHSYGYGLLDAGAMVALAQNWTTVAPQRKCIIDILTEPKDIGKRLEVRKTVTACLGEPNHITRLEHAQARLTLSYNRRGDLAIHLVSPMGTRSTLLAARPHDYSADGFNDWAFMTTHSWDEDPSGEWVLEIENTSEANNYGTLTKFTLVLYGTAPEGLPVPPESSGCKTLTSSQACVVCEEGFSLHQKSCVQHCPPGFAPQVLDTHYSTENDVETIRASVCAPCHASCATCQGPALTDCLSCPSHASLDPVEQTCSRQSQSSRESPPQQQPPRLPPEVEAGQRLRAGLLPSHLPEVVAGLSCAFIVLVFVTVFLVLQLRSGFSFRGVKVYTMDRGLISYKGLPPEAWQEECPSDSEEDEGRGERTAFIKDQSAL
test name: Inhibition of furin (unknown origin)
Numbered stars: 1 amine (or outer) side, 2 acyl side, 3 side chain; on linkers, the order of the positions; unused ones are H or OH. Bridge positions count the residues as written; N and C are the ends. Square brackets hold non-standard residues; d marks the D form. Peptide text beside a SMILES is read from it. * marks the point of attachment. X2 = CC(C(=O)[*:2])n1cc(C(CCCNC(=N)N)N[*:1])nn1; NH(4-amidinobenzyl) = N=C(N)c1ccc(CN*)cc1; Glutaryl = O=C(CCCC(=O)[*:2])[*:1]; X3 = NC(N)=NC/C=C/CN*
readout type: Ki (nM)
Your answer is read as nM, so omit the unit and give the number.

Give UniProt P09958 Ki for "CC(=O)NN(CCCNC(=N)N)CC(=O)N[C@@H](C)C(=O)N[C@@H](CCCNC(=N)N)C(=O)N[C@@H](CCCNC(=N)N)C(=O)N[C@@H](CCCNC(=N)N)C(=O)N[C@@H](CCCCN)C(=O)N[C@@H](CCCCN)C(=O)NN(CCCNC(=N)N)CC(=O)N[C@H](C(N)=O)[C@@H](C)O"
46

Give UniProt P09958 Ki for N=C(N)NCCC[C@@H]1NC(=O)CCCC(=O)NCCCC[C@@H](C(=O)N[C@@H](CCCNC(=N)N)C(=O)NCc2ccc(C(=N)N)cc2)NC(=O)[C@H](CCCNC(=N)N)NC(=O)[C@H](CCCNC(=N)N)NC1=O (RRRKR-{NH(4-amidinobenzyl)}; linker N-4 via Glutaryl)
0.68

Give UniProt P09958 Ki for CC(=O)N[C@@H](CCCN=C(N)N)C(=O)N[C@@H](C)C(=O)N[C@@H](CCCN=C(N)N)C(=O)N[C@@H](CCCN=C(N)N)C(=O)N[C@@H](CCCN=C(N)N)C(=O)N[C@@H](CCCCN)C(=O)N[C@@H](CCCCN)C(=O)NC/C=C/CN=C(N)N (Ac-RARRRKK-X3)
7

Give UniProt P09958 Ki for "CC(C)(C)[C@H](NC(=O)[C@H](CCCNC(=N)N)NC(=O)Cc1ccc(CN)cc1)C(=O)N[C@@H](CCCNC(=N)N)C(=O)NCc1ccc(C(=N)N)cc1"
0.0224

Give UniProt P09958 Ki for "CC(C)(C)[C@H](NC(=O)[C@H](CCCNC(=N)N)NC(=O)Cc1ccc(CNC(=N)N)cc1)C(=O)N[C@@H](CCCN)C(=O)NCc1ccc(C(=N)N)cc1"
0.0088

Give UniProt P09958 Ki for "CC(C)(C)[C@H](NC(=O)[C@H](CCCNC(=N)N)NC(=O)Cc1ccc(CNC(=N)N)cc1)C(=O)N[C@@H](CCCNC(=N)N)C(=O)NCc1ccc(C(=N)N)c(F)c1"
0.0223

Give UniProt P09958 Ki for CC(C(=O)N[C@@H](C)C(=O)N[C@@H](CCCNC(=N)N)C(=O)N[C@@H](CCCNC(=N)N)C(=O)N[C@@H](CCCNC(=N)N)C(=O)N[C@@H](CCCCN)C(=O)N[C@@H](CCCCN)C(=O)N[C@@H](CCCNC(=N)N)C(=O)N[C@H](C(N)=O)[C@@H](C)O)n1cc(C(CCCNC(=N)N)NC(=O)[C@@H](N)CCCNC(=N)N)nn1 (stereo partly drawn) (H-R[X2]ARRRKKRT-NH2)
13

Give UniProt P09958 Ki for "CC(C)(C)[C@@H]1NC(=O)[C@H](CCCNC(=N)N)NC(=O)[C@H](CCCNC(=N)N)NC(=O)[C@@H](N)CCCCNC(=O)Cc2ccc(cc2)CNC(=O)CCCC(=O)NCCCC[C@@H](C(=O)NCc2ccc(C(=N)N)cc2)NC1=O"
1.17
